Quick reference: IC50 of the listed items.
Target: HCV polymerase (NS5B) type 1b (Hepatitis C virus genotype 1b, UniProt P26663)
Construct: a region encoding NS5B (J Virol 1991 March, 65(3), 1105-13, 544 amino acids after deletion of 47 amino acids on the C-terminal); 6xHis (C); made in house; host or cells: Escherichia coli
Experiment: Assay of enzyme (HCV polymerase) inhibitory activity, type 1b enzyme
Assay type: biochemical, HCV BK strain (type 1b)
Details: HCV polymerase inhibitory activity IC50, 1b, type 1b enzyme

# count of solved cases: 5
> print(dat)
                            chemical.string          result
1  COc1ccc2nc(N3CCN(S(=O)(=O)c4ccc(OC(F)(F)F)cc4)[C@@H](C(=O)NCc4ccc(OC(F)(F)F)cc4)C3)sc2n1  100 to 1000 nM
2  CCC(F)(F)c1ccc(CNC(=O)[C@H]2CN(c3nc4nc(C)ncc4s3)CCN2S(=O)(=O)c2ccc(OC(F)(F)F)cc2)cc1        < 100 nM
3  CCC(F)(F)c1ccc(CNC(=O)[C@H]2CN(c3cnc4cncnc4n3)CCN2S(=O)(=O)c2ccc([N+](=O)[O-])cc2)cc1        < 100 nM
4  CCc1ccc(S(=O)(=O)N2CCN(c3cnc(CO)cn3)C[C@@H]2C(=O)NCc2ccc(OC(F)(F)F)cc2)cc1        < 100 nM
5  O=C(NCc1ccc(OC(F)(F)F)cc1)[C@H]1CN(c2nn3c(=O)cc(C(F)(F)F)nc3s2)CCN1S(=O)(=O)c1ccc(OC(F)(F)F)cc1  100 to 1000 nM

Exam item: Please give the measured IC50 for this compound: O=C(NCc1ccc(OC(F)F)cc1)[C@H]1CN(c2nn3c(C(F)(F)F)cc(=O)nc3s2)CCN1S(=O)(=O)c1ccc(OC(F)(F)F)cc1
Marked response: < 100 nM

====

Examples of compounds with documented IC50 follow.
Target: HCV polymerase (NS5B) type 1a (Hepatitis C virus genotype 1a, UniProt P26664)
Construct: made in house; host or cells: Escherichia coli (by the 'similar method' of the 1b enzyme)
Assay: Assay of enzyme (HCV polymerase) inhibitory activity, type 1a enzyme
Type: biochemical, HCV type 1a (cloned from the blood of patients)
Conditions: HCV polymerase inhibitory activity IC50, 1a, type 1a enzyme
Protocol: The evaluation of the HCV polymerase inhibitory activity of the compound of the present invention is explained in the following. This polymerase is an enzyme coded for by the non-structural protein region called NS5B on the genome RNA of HCV. i) Preparation of Enzyme (HCV Polymerase) […] The HCV polymerase inhibitory activity (IC50) of the compound of the present invention was calculated from the values of radioactivity of the enzyme reaction with and without the test substance. […]

Exam item: Returns the measured IC50 for the input compound. Input: COCC(C)(C)c1ccc(CNC(=O)[C@H]2CN(c3nc4cn[nH]c(=O)c4s3)CCN2S(=O)(=O)c2ccc(OC(F)(F)F)cc2)cc1
Marked response: < 0.1 µM

Exam item: Cool, now O=C(NCc1ccc(OC(F)F)cc1)[C@H]1CN(c2nn3c(C(F)(F)F)cc(=O)nc3s2)CCN1S(=O)(=O)c1ccc(C(F)(F)F)cc1
Marked response: < 0.1 µM

====

Target: HCV polymerase (NS5B) type 1a (Hepatitis C virus genotype 1a, UniProt P26664)
Construct: made in house; host or cells: Escherichia coli (by the 'similar method' of the 1b enzyme)
Test: Assay of enzyme (HCV polymerase) inhibitory activity, type 1a enzyme
Assay type: biochemical, HCV type 1a (cloned from the blood of patients)
Settings: HCV polymerase inhibitory activity (IC50), 1a, type 1a enzyme 1.5 μg/ml, 25° C., 60 min
Readout type: IC50

Below are worked cases with known answers.
> print(dat)
                                   compound          result
1  CCc1cc(S(=O)(=O)N2CCN(C(C)=O)C[C@@H]2C(=O)NCc2ccc(C(C)C)cc2)ccc1OC [Example 236]  100 to 1000 nM
2  CCCc1ccc(CNC(=O)[C@H]2CN(c3nc4c(s3)CN(C(=O)OCc3ccccc3)CC4)CCN2S(=O)(=O)c2ccc(OC(F)(F)F)cc2)cc1 [Example 534]        < 100 nM

Exam item: Entry CC(=O)N1CCN(S(=O)(=O)c2ccc(OC(F)(F)F)cc2)[C@@H](C(=O)NCc2ccc(C(C)(C)C#N)cc2)C1 [Example 641] has what IC50?
Marked response: 100 to 1000 nM

====

pIC50 for assorted molecules
Target: HCV polymerase (NS5B) type 1b (Hepatitis C virus genotype 1b, UniProt P26663)
Construct: a region encoding NS5B (J Virol 1991 March, 65(3), 1105-13, 544 amino acids after deletion of 47 amino acids on the C-terminal); 6xHis (C); made in house; host or cells: Escherichia coli
Test: Assay of enzyme (HCV polymerase) inhibitory activity, type 1b enzyme
Format: biochemical, HCV BK strain (type 1b)
Details: HCV polymerase inhibitory activity (IC50), 1b, type 1b enzyme 0.5 μg/ml, 25° C., 60 min
pIC50: −log10 of the molar value.

Exam item: Any idea what its pIC50 is? The molecule is CN(C)c1ccc(CNC(=O)C2CN(C(=O)OC(C)(C)C)CCN2S(=O)(=O)c2ccc(I)cc2)cc1 (stereo not drawn)
Marked response: < 6.00

Exam item: // query: COc1ccccc1CNC(=O)C1CN(C(C)=O)CCN1S(=O)(=O)c1ccc(C(C)C)cc1 (stereo not drawn)
Marked response: < 6.00

Exam item: Entry to check: CCC(F)(F)c1ccc(CNC(=O)[C@H]2CN(C(=O)Nc3nnc(C(C)(C)O)s3)CCN2S(=O)(=O)c2ccc(OC(F)(F)F)cc2)cc1
Marked response: > 7.00

Exam item: Query CC(C)c1ccc(CNC(=O)[C@H]2CN(c3cnc(C(=O)O)cn3)CCN2S(=O)(=O)c2ccc(OC(F)(F)F)cc2)cc1 next
Marked response: > 7.00

Exam item: Let us now turn to CC(C)c1ccc(CNC(=O)[C@H]2CN(c3ccc(C(=O)OC(C)(C)C)cn3)CCN2S(=O)(=O)c2ccc(C(F)(F)F)cc2)cc1
Marked response: 6.00 to 7.00

Exam item: Also CCCc1ncc(S(=O)(=O)N2CCN(C(C)=O)C[C@@H]2C(=O)NCc2ccc(C(C)C)cc2)s1 , if possible.
Marked response: > 7.00

====

Listing: pIC50 of selected molecules
Target: HCV polymerase (NS5B) type 1b (Hepatitis C virus genotype 1b)
Construct: a region encoding NS5B (J Virol 1991 March, 65(3), 1105-13, 544 amino acids after deletion of 47 amino acids on the C-terminal); 6xHis (C); made in house; host or cells: Escherichia coli
Test: Assay of enzyme (HCV polymerase) inhibitory activity, type 1b enzyme
Type: biochemical, HCV BK strain (type 1b)
Conditions: HCV polymerase inhibitory activity IC50, 1b, type 1b enzyme
pIC50: −log10 of the molar value.

> print(dat)
                                   molecule  readout.type  result
1  CCCc1ccc(CNC(=O)[C@H]2CN(c3cnc4cncc(C(=O)O)c4n3)CCN2S(=O)(=O)c2ccc(Cl)s2)cc1 [Example 860]         pIC50  > 7.00
2  CN(C)C(=O)c1cncc2ncc(N3CCN(S(=O)(=O)c4ccc(OC(F)(F)F)cc4)[C@@H](C(=O)NCc4ccc(OC(F)(F)F)cc4)C3)nc12 [Example 866]         pIC50  > 7.00

The record that follows has no pIC50 shown yet.
Exam item: Fill in the blank: the reported pIC50 of O=C(NCc1ccc(OC(F)(F)F)cc1)[C@H]1CN(c2nc3nc(CC4CC4)ncc3s2)CCN1S(=O)(=O)c1ccc(C(F)(F)F)cc1 [Example 1012] is ____.
Marked response: > 7.00

====

Target: HCV polymerase (NS5B) type 1b (Hepatitis C virus genotype 1b, UniProt P26663)
Construct: a region encoding NS5B (J Virol 1991 March, 65(3), 1105-13, 544 amino acids after deletion of 47 amino acids on the C-terminal); 6xHis (C); made in house; host or cells: Escherichia coli
Test: Assay of enzyme (HCV polymerase) inhibitory activity, type 1b enzyme
Type: biochemical, HCV BK strain (type 1b)
Conditions: HCV polymerase inhibitory activity IC50, 1b, type 1b enzyme
This section presents molecules with their documented IC50 values.

> print(dat)
                                   molecule     result
1  CCCc1ccc(CNC(=O)[C@H]2CN(c3nc4c(C(=O)OCC)cncc4s3)CCN2S(=O)(=O)c2ccc(CC)cc2)cc1 [Example 1064]   < 100 nM
2  CCCc1ccc(CNC(=O)[C@H]2CN(C(=O)Nc3ccccc3C(=O)OCc3ccccc3)CCN2S(=O)(=O)c2ccc(OC(F)(F)F)cc2)cc1 [Example 837]  > 1000 nM

Exam item: # IC50 lookup, item CCOC(=O)CN(C)c1ccc(S(=O)(=O)N2CCN(c3cnc4cnccc4n3)C[C@@H]2C(=O)NCc2ccc(OC(F)(F)F)cc2)cc1 [Example 764]
Marked response: < 100 nM

Exam item: Next record, please: CCCc1ccc(CNC(=O)[C@H]2CN(c3cnc4cncnc4n3)CCN2S(=O)(=O)c2ccc(OC(F)(F)F)cc2)s1 [Example 857]
Marked response: < 100 nM

Exam item: Also, O=C(NCc1ccc(OC(F)(F)F)cc1)[C@H]1CN(c2nc3nc(Cl)ncc3s2)CCN1S(=O)(=O)c1ccc(C(F)(F)F)s1 [Example 947] please.
Marked response: < 100 nM

Exam item: Next entry: CCC(F)(F)c1ccc(CNC(=O)[C@H]2CN(C(=O)/C=C/C(=O)O)CCN2S(=O)(=O)c2ccc(OC(F)(F)F)cc2)cc1 [Example 667]
Marked response: 100 to 1000 nM
